molecular target: UniProt:P07943; experiment: Inhibition of aldose reductase (or polyol accumulation) in isolated rat sciatic nerve by compound at 10e-5 M concentration; format: tissue-based
Endpoint: IC50
Note: a bare number is incomplete; add the unit.

get_value(item= COc1ccc2c(C(=S)N(C)CC(=O)O)cccc2c1C(F)(F)F , readout=IC50) returns 540 nM

* * *

target: Aldo-keto reductase family 1 member B1 (Rattus norvegicus); experiment: Inhibition of aldose reductase (or polyol accumulation) in isolated rat sciatic nerve by compound at (10E-5) M concentration; format: tissue-based
Endpoint: pIC50
// pIC50: -log10(molar conc.)

get_value(item= CC1=C(CC(=O)O)c2cccc3cccc(c23)C1=O , readout=pIC50) returns 5.60
